target.of.assay: CDK6-CYCLIND3 (Homo sapiens, UniProt Q00534)
Construct: purchased Carna
Sequence (Q00534 whole entry): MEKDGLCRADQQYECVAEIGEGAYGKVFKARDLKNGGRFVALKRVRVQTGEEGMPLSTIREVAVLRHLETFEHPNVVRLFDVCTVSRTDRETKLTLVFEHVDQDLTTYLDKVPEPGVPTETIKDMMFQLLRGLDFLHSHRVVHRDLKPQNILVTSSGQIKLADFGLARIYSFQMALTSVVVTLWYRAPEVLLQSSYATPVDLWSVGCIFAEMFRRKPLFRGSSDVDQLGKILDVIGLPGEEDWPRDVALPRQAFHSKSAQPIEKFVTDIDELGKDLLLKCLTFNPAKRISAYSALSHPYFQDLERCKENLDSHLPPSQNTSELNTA
Sequence (P30281 whole entry partner): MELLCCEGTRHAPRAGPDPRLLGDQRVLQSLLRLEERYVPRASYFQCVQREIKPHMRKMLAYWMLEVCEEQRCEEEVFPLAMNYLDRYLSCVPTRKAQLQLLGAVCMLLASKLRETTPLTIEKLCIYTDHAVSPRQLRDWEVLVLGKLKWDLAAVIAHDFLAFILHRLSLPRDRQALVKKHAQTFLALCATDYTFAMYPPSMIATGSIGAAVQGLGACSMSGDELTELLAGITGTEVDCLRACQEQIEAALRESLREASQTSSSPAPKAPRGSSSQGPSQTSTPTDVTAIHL
assay.summary: Microfluidic LabChip kinase inhibition assay, CDK6-CyclinD3
Format: biochemical
settings: Table 2; 300 μM ATP, 2 nM enzyme; read-out: CDK6 IC50
measurement.label: IC50 (µM)

- CN1CCN(c2ccc(Nc3ncc4c(n3)N(C3CCCC3)C3(CCNC3=O)C4)cc2)CC1 (stereo not shown): 0.574

1: O=C1NCCC12C(=O)N(C1CCCC1)c1nc(Nc3ccc(N4CCC(N5CCOCC5)CC4)c(F)c3)ncc12 (stereo not shown)
2: O=C1NCCC12Cc1cnc(Nc3ccc(N4CCC(N5CCOCC5)CC4)nc3)nc1N2C1CCCC1 (stereo not shown)
Q: Identify the entry with the larger IC50. Options: 1 and 2 Let me know the label of the one you choose.
Result: 1
(1: 14.7 µM, 2: 0.488 µM)

A: CN1CCN(c2ccc(Nc3ncc4c(n3)N(C3CCCC3)C3(CCN(Cc5ccccc5)C3=O)C4)c(F)c2)CC1 (stereo not shown)
B: CN1CCN(c2ccc(Nc3ncc4c(n3)N(C3CCCC3)C3(CCN(Cc5ccccc5)C3=O)C4)cc2F)CC1 (stereo not shown)
Q: Identify the entry with the larger IC50. Options: A and B Let me know the label of the one you choose.
Result: A
(A: 12.8 µM, B: 2.55 µM)
